Hello, the source for this data is patent US7592308B2, in case you need it.

# System: S. pyogenes 16205
# Type: cell-based, Streptococcus pyogenes
Strictly below 1 µg/mL in MIC S. pyogenes 16205: Criterion met. Otherwise: Criterion not met.

For this compound, is MIC S. pyogenes 16205 lower than 1 µg/mL? C=C1NC(=O)C2NC(=O)[C@H](CC(C)C)NC(=O)C(NC(=O)[C@@H]3CSC(C)C(NC(=O)[C@H](Cc4ccccc4)NC(=O)C4NC(=O)[C@@H](N)CSC4C)C(=O)N[C@@H](CC(C)C)C(=O)N4CCC[C@H]4C(=O)NCC(=O)NCC(=O)NCC(=O)NCC(=O)N[C@@H](C(C)C)C(=O)N3)C(C)SC[C@H](NC(=O)[C@H](CCC(=O)O)NC1=O)C(=O)N[C@@H]([C@@H](C)CC)C(=O)NC=CSC2C (some centres unmarked) Criterion met

Is MIC S. pyogenes 16205 strictly under 1 µg/mL for the entry C=C1NC(=O)C2NC(=O)[C@H](CC(C)C)NC(=O)C(NC(=O)[C@@H]3CSC(C)C(NC(=O)[C@H](Cc4ccccc4)NC(=O)C4NC(=O)[C@@H](N)CSC4C)C(=O)N[C@@H](CC(C)C)C(=O)N[C@@H](C)C(=O)NCC(=O)NCC(=O)NCC(=O)NCC(=O)N[C@@H](C(C)C)C(=O)N3)C(C)SC[C@H](NC(=O)[C@H](CCC(=O)O)NC1=O)C(=O)N[C@@H]([C@@H](C)CC)C(=O)NC=CSC2C (some centres unmarked) ? Criterion not met

Lab note: confirm whether the reported MIC S. pyogenes 16205 for this compound is below 1 µg/mL, equality not counting. compound: CC[C@H](C)[C@@H]1NC(=O)[C@@H]2CSC(C)C(NC(=O)[C@@H]3CSC(C)C(NC(=O)[C@H](Cc4ccccc4)NC(=O)C4NC(=O)[C@@H](N)CSC4C)C(=O)N[C@@H](CC(C)C)C(=O)N4CCC[C@H]4C(=O)NCC(=O)NCC(=O)NCC(=O)NCC(=O)N[C@@H](C(C)C)C(=O)N3)C(=O)N[C@@H](CC(C)C)C(=O)NC(C(=O)N[C@@H](Cc3c[nH]cn3)C(=O)N[C@@H](CCC(=O)O)C(=O)N2)C(C)SC=CNC1=O (some centres unmarked) [Dha16H] Criterion not met

Does the reported MIC S. pyogenes 16205 of C=C1NC(=O)C2NC(=O)[C@H](CC(C)C)NC(=O)C(NC(=O)[C@@H]3CSC(C)C(NC(=O)[C@H](Cc4c[nH]c5ccccc45)NC(=O)C4NC(=O)[C@@H](N)CSC4C)C(=O)N[C@@H](CC(C)C)C(=O)N4CCC[C@H]4C(=O)NCC(=O)NCC(=O)NCC(=O)NCC(=O)N[C@@H](C(C)C)C(=O)N3)C(C)SC[C@H](NC(=O)[C@H](CCC(=O)O)NC1=O)C(=O)N[C@@H]([C@@H](C)CC)C(=O)NC=CSC2C (some centres unmarked) stay below 1 µg/mL? Criterion met
